Molecular target: T1, cynomolgus PD-L1, his tagged (cPD-L1-his) (cynomolgus (Macaca fascicularis), UniProt G7PSE7 19-238)
T1 construct: also called cyPD-L1-His; Cyno PD-L1
T1 sequence (G7PSE7 entry or part of it limits assumed, form in doubt): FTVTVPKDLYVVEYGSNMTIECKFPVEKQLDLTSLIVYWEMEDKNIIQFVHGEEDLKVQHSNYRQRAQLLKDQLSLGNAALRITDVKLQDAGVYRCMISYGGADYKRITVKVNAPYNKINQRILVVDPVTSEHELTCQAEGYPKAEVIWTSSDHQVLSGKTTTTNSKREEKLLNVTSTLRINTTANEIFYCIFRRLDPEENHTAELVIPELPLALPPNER
Assay: BLI (ForteBio Octet), cPD-L1-his
Consider the following binders; for each one, report its koff.
Numbers only; they are read as s⁻¹.

IN: Name the recorded koff of the item h769-tm2 (humanized 769-hIgG1 variant) (antibody, V domains shown) VH: EVQLVQSGAEVKKPGATVKISCKVSGFNIKDTYMHWVQQAPGKGLEWMGLIDPANDNTIYAEKFQGRVTITADTSTDTAYMELSSLRSEDTAVYYCAREGYGGSYGEGYWGQGTLVTVSS VL: EIVMTQSPPTLSLSPGERVTLSCRASQSVSNDLSWYQQKPGQAPRLLIYYASIRFTGIPARFSGSGYGTDFTLTISSLQPEDFAVYYCQQDYNSPWTFGQGTKVEIK in your answer.
OUT: 0.000593

IN: Name the recorded koff of the item h769-tm3 (humanized 769-hIgG1 variant) (antibody, V domains shown) VH: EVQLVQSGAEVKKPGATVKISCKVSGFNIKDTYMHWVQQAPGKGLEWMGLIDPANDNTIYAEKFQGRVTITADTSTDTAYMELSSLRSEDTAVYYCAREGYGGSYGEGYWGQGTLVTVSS VL: EIVMTQSPPTLSLSPGERVTLSCRASQSVSNDLSWYQQKPGQAPRLLIYYASIRFTGIPARFSGSGSGTDFTLTISSLQPEDFAVYFCQQDYNSPWTFGQGTKVEIK in your answer.
OUT: 0.00065

IN: Name the recorded koff of the item h769-IF3 (humanized 769-hIgG1 variant) (antibody, V domains shown) VH: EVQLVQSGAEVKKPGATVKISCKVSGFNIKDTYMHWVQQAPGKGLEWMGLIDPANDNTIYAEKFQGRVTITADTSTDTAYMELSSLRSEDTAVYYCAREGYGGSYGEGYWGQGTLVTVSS VL: EIVMTQSPPTLSLSPGERVTLSCRASQSVSNDLSWYQQKPGQAPRLLIYYASIRFTGIPARFSGSGSGTDFTLTISSLQPEDFAVYYCQQDYNSPWTFGQGTKVEIK in your answer.
OUT: 0.000602

IN: Name the recorded koff of the item 769-hIgG1 (chimeric PAL769) (antibody, V domains shown) VH: EVQLQESGAELVKPGASVTLSCTASGFNIKDTYMHWVKQRPEQGLEWIGRIDPANDNTKYDPKFQDKATITADTSSDTAYLRLSSLTSEDTAVYYCAREGYGGSYGEGYWGQGTTLTVSS VL: SIVMTQTPKFLLVSAGDRVTITCKASQSVSNDVIWYQQKPGQSPKLLIYYASIRFTGVPDRFAGSGYGTDFTFTINTVQAEDLAVYFCQQDYNSPWTFGGGTKLEIK in your answer.
OUT: 0.000685
